target: Rac-1 (Homo sapiens, UniProt P63000); assay: Ras GTP binding domain inhibition assay (labeled-GTP competition, cell-free); design: made in house; conditions: without SOS, read-out: Rac-1: % inh.
Measured inhibition at 20 µM, listed per entry.

Problem: Answer with inhibition at 20 µM of COCCNC(=O)c1nc(O)c2scc(-c3ccccn3)c2n1 measured for Rac-1 (Homo sapiens, UniProt P63000).
Solution: 26 to 50%

Problem: Answer with inhibition at 20 µM of CO[C@H]1CC[C@@H](Nc2nc(-c3ccccn3)nc3sc(-c4ccn(C(C)C)n4)c(C)c23)C1 (racemic) measured for Rac-1 (Homo sapiens, UniProt P63000).
Solution: 1 to 25%

Problem: Answer with inhibition at 20 µM of COCC1CCN(c2nc(-c3nccn3C)nc3sc(-c4ccn(C(C)C)n4)c(-c4ccccc4)c23)C1 (racemic) measured for Rac-1 (Homo sapiens, UniProt P63000).
Solution: 1 to 25%

Problem: Answer with inhibition at 20 µM of Cc1c(-c2ccn(C(C)C)n2)sc2nc(-c3nccn3C)nc(N3CCC(COC(C)C)C3)c12 (racemic) measured for Rac-1 (Homo sapiens, UniProt P63000).
Solution: 1 to 25%

Problem: Answer with inhibition at 20 µM of CCOCCn1ccnc1-c1nc(O)c2scc(-c3ccccn3)c2n1 measured for Rac-1 (Homo sapiens, UniProt P63000).
Solution: 76 to 100%

Problem: Answer with inhibition at 20 µM of COCCn1ccnc1-c1nc(N[C@H]2C[C@@H](OC)C2)c2c(-c3ccccc3)c(-c3ccn(C)n3)sc2n1 measured for Rac-1 (Homo sapiens, UniProt P63000).
Solution: 76 to 100%

Problem: Answer with inhibition at 20 µM of COCCn1ccnc1-c1nc(N[C@@H]2CC[C@H](OC)C2)c2c(-c3ccccc3)c(-c3ccn(C)n3)sc2n1 (racemic) measured for Rac-1 (Homo sapiens, UniProt P63000).
Solution: 76 to 100%

###

target: KRas Q61H mutant (Homo sapiens, UniProt P01116, Q61H); construct: made in house; assay: Ras GTP binding domain inhibition assay (labeled-GTP competition, cell-free); conditions: at 20 μM, with SOS; read-out: KRas Q61H mutant + SOS: % inh.
Measured inhibition at 20 µM, listed per entry.

Problem: Identify the reported inhibition at 20 µM for the following entry. CO[C@H]1C[C@@H](CNc2nc(-c3nccn3C)nc3sc(-c4ccn(C(C)C)n4)c(C)c23)C1 [Compound 47]
Solution: 76 to 100%

Problem: Identify the reported inhibition at 20 µM for the following entry. Cc1c(-c2ccn(C(C)C)n2)sc2nc(-c3nccn3C)nc(NC[C@H]3CCC(=O)N3)c12 [Compound 52]
Solution: 51 to 75%

Problem: Identify the reported inhibition at 20 µM for the following entry. CO[C@H]1CC[C@@H](Nc2nc(C(N)=O)nc3sc(-c4ccn(C(C)C)n4)cc23)C1 (racemic) [Compound 17]
Solution: 0%

Problem: Identify the reported inhibition at 20 µM for the following entry. CO[C@H]1CC[C@@H](Nc2nc(C(=O)NC(C)C)nc3sccc23)C1 (racemic) [Compound 13]
Solution: 0%

Problem: Identify the reported inhibition at 20 µM for the following entry. CO[C@@H]1CC[C@@H](Nc2nc(-c3nccn3C)nc3sc(-c4ccn(C(C)C)n4)c(C)c23)C1 (racemic) [Compound 33]
Solution: 76 to 100%

Problem: Identify the reported inhibition at 20 µM for the following entry. CO[C@H]1CC[C@@H](Nc2nc(C(=O)N3CCCC3)nc3sccc23)C1 (racemic) [Compound 25]
Solution: 0%

Problem: Identify the reported inhibition at 20 µM for the following entry. COCCNc1nc(-c2nccn2C)nc2sc(-c3ccn(C(C)C)n3)c(C)c12 [Compound 35]
Solution: 76 to 100%

Problem: Identify the reported inhibition at 20 µM for the following entry. Cc1cnc(-c2nc(O)c3scc(-c4ccccn4)c3n2)s1 [Compound 92]
Solution: 51 to 75%

Problem: Identify the reported inhibition at 20 µM for the following entry. O=C(c1nc(O)c2scc(-c3ccccn3)c2n1)N1CCOCC1 [Compound 22]
Solution: 1 to 25%

Problem: Identify the reported inhibition at 20 µM for the following entry. CO[C@H]1CC[C@@H](Nc2nc(C(=O)N3CCOCC3)nc3sccc23)C1 (racemic) [Compound 12]
Solution: 0%

Problem: Identify the reported inhibition at 20 µM for the following entry. COC1CCCN(c2nc(-c3nccn3C)nc3sc(-c4ccn(C(C)C)n4)c(-c4ccccc4)c23)C1 (racemic) [Compound 77]
Solution: 26 to 50%

Problem: Identify the reported inhibition at 20 µM for the following entry. CO[C@H]1CC[C@@H](Nc2nc(-c3nccn3C)nc3sc(-c4ccn(C(C)C)n4)c(-c4ccccc4)c23)C1 [Compound 5]
Solution: 76 to 100%
